B1: TPR 5TU (parent)
chain: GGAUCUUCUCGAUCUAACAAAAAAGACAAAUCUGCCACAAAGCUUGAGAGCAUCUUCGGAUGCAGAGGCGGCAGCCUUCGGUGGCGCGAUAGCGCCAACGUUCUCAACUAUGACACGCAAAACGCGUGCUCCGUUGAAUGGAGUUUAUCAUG

Variants of: B1
Assay: polymerase ribozyme fitness, log enrichment relative to wild type (log ratio); higher = more active; in vitro selection for triplet polymerase activity
Variants at the floor of the assay were thinned out.
# polymerase ribozyme fitness (log ratio) listing for each entry below
I'd appreciate a reply containing only the number, no unit.

# mutant label, measurement
measured = [
    ("A41G C75U C93G", -2.6),
    ("A22U G71A", -2.64),
    ("U55A C125A G141A", -4.12),
]

Then there is this variant:
What value of polymerase ribozyme fitness (log ratio) has been reported for the following variant? U102G
-2.51

Where these numbers come from: the RNAGym collection of RNA variant scans (doi:10.1073/pnas.2313332121)
